These data points were gathered from ChEMBL document CHEMBL1165943.

system: HCT-116; experiment: Cytotoxicity against human HCT116 cells assessed as cell growth at 10 uM; assay type: functional; details: Homo sapiens, HCT-116; read-out: Activity
result-type: growth at 10 µM (%)
// return numeric value only (unit: %, not printed)

{"columns": ["structure-smiles-string", "growth at 10 µM (%)"],
 "data": [
  ["O=C(Nc1cc(C(F)(F)F)cc(C(F)(F)F)c1)Nc1nccc(-c2ccc(Nc3ccccc3)nc2)n1", 93.2],
  ["Cc1ccc(Nc2nc(C)cc(-c3cccnc3)n2)c(C)c1", 95.2],
  ["CC(=O)Nc1cccc(-c2ccc(-c3ccnc(NC(=O)Nc4cc(C(F)(F)F)cc(C(F)(F)F)c4)n3)cn2)c1.Cl", 50.5],
  ["c1ccc(-c2ccc(-c3ccnc(Nc4ccc(N(c5ccccc5)c5ccccc5)cc4)n3)cn2)cc1", 40.6],
  ["CC(=O)c1ccc(-c2ccc(-c3ccnc(Nc4cc(C(F)(F)F)cc(C(F)(F)F)c4)n3)cn2)cc1", 92.9],
  ["CC(=O)c1ccccc1-c1ccc(-c2ccnc(NC(=O)Nc3cc(C(F)(F)F)cc(C(F)(F)F)c3)n2)cn1", 69.9],
  ["FC(F)(F)c1cc(Nc2nccc(-c3cccnc3)n2)cc(C(F)(F)F)c1", 91.1],
  ["Cc1cc(-c2cccnc2)nc(NC(=O)c2cccc(C(F)(F)F)c2)n1", 105]
]}

query: Dear colleague, I am looking for the recorded growth at 10 µM of the following molecule: `FC(F)(F)c1cc(Nc2nccc(-c3ccc(-c4ccccc4)nc3)n2)cc(C(F)(F)F)c1`
result: 81.6

query: Dear colleague, I am looking for the recorded growth at 10 µM of the following molecule: `CC(=O)c1ccccc1-c1ccc(-c2ccnc(NC(=O)Nc3cc(N4CCOCC4)cc(C(F)(F)F)c3)n2)cn1`
result: 63

query: Dear colleague, I am looking for the recorded growth at 10 µM of the following molecule: `FC(F)(F)c1cc(Nc2nccc(-c3ccc(Nc4ccccc4)nc3)n2)cc(C(F)(F)F)c1`
result: 108
